The values you see were collected from patent US11497212B2.

Test system: Stellaria media
assay explanation: Herbicidal action post-emergence (greenhouse pot trial)
Assay type: in vivo
condition parameters: application rate 20 g/ha, scored visually after about 3 weeks vs untreated controls
measurement type: Stellaria media (Efficacy in %)
Provide the reading as a plain figure in %.

compound | measurement type | numeric readout
CCC(Sc1cc(-n2c(=O)cc(C(F)(F)F)n(C)c2=O)c(F)cc1Cl)C(=O)OCC1CCCS1 (centres unmarked) [I.2-81] | Stellaria media (Efficacy in %) | 100

# query: Stellaria media (Efficacy in %) | item CC(Sc1cc(-n2c(=O)cc(C(F)(F)F)n(C)c2=O)c(F)cc1Cl)C(=O)OCCOCc1ccccc1 (centres unmarked) [I.1-6] | system: Stellaria media
90

# query: Stellaria media (Efficacy in %) | item CC(Sc1cc(-n2c(=O)cc(C(F)(F)F)n(C)c2=O)c(F)cc1Cl)C(=O)OC1COC1 (centres unmarked) [I.1-115] | system: Stellaria media
100

# query: Stellaria media (Efficacy in %) | item Cc1c(C(F)(F)F)n(C)c(=O)n(-c2cc(SCC(C)(C)C(=O)OCC3CCCO3)c(Cl)cc2F)c1=O (centres unmarked) [I.54-71] | system: Stellaria media
80

# query: Stellaria media (Efficacy in %) | item CC(C)CC(Sc1cc(-n2c(=O)cc(C(F)(F)F)n(C)c2=O)c(F)cc1Cl)C(=O)NCC1CCCO1 (centres unmarked) [I.4-221] | system: Stellaria media
80
